Assignment: determine reported Ki for the given compounds.
- systemTested: Orexin/Hypocretin receptor type 1 (Homo sapiens)
- Sequence (O43613 whole entry): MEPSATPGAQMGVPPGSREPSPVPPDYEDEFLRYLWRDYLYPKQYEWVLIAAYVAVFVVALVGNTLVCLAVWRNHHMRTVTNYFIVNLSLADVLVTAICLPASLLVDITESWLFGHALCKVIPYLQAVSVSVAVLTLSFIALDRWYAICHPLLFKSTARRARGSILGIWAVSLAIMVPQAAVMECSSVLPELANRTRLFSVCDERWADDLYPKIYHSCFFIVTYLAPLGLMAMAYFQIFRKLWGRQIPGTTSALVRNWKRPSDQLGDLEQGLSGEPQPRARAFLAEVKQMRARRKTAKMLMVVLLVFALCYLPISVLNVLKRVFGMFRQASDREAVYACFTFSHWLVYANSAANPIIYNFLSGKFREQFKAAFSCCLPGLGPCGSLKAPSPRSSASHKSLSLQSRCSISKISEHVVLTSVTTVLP
- methodDescription: FLIPR Assay : FLIPR assay using orexin receptor.
Put down the number, then write its unit next to it.

O=C1N(Cc2cccc3ccccc23)CCCC12CCN(c1nc3ccccc3[nH]1)CC2: 2460 nM

For the next question, use this compound.
Prompt: Specify the recorded Ki for "O=C1N(Cc2cc(Cl)cc3c2OCOC3)CCCC12CCN(c1cnc3ccccc3n1)CC2" , system: Orexin/Hypocretin receptor type 1 (Homo sapiens).
Completion: 1540 nM
